Reference source: patent US9828385B2

biological target: human V1a receptor (Homo sapiens, UniProt P37288); construct: expressed in transfected cells; host or cells: HEK293 cells, transiently transfected; cell membranes; test: human V1a receptor binding studies (3H-Vasopressin, SPA beads); details: membranes of HEK293 cells transiently transfected with human V1a receptor, Ki by Cheng-Prussoff from IC50, read-out: pKi hV1a (converted)
Sequence (P37288 whole entry): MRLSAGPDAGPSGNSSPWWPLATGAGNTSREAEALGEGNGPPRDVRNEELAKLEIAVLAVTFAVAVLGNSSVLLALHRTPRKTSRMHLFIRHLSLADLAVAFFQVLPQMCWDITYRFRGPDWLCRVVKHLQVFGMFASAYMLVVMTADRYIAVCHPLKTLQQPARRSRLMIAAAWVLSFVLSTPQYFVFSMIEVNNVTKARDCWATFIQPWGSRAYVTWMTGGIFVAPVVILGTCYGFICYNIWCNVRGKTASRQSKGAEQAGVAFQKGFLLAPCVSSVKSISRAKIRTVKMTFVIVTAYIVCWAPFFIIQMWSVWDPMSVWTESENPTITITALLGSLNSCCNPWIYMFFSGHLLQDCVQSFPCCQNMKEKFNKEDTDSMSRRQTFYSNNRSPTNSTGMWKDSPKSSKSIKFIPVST
recorded-metric: Ki (nM)

(A) O=C1C[C@@H]2CC3(C[C@@H]2C1)OC(N1CCC2(CC1)OCc1ccccc12)=NC3=O (stereo partly drawn) [Example 143]
(B) CCCCC1OC(N2CCC3(CC2)OCc2ccccc23)=NC1=O (stereo not drawn) [Example 2]
Input pair: A , B . Output: entry with lower Ki. Field: selected label. Fill in the label of the entry you choose.
B
(B: 5.01 nM, A: 100 nM)

(I) CC1(Cc2ccc(Cl)cc2)OC(N2CCC3(CC2)OC(=O)c2ccccc23)=NC1=O (single isomer, unassigned; enantiomer a) [Example 80]
(II) O=C1N=C(N2CCC3(CC2)OCc2ccccc23)OC1Cc1ccccc1 (stereo not drawn) [Example 17]
Would you mind telling me which has the lower recorded Ki between I and II ? Select an item and report its label.
II

(1) CC1(CC2CCOC2)OC(N2CCC3(CC2)OCc2ccccc23)=NC1=O (single isomer, unassigned; diastereomer b) [Example 100]
(2) CC1(Cc2ccc(Cl)nc2)OC(N2CCC3(CC2)OCc2ccccc23)=NC1=O (stereo not drawn) [Example 82]
(3) O=C1N=C(N2CCC3(CC2)OCc2ccccc23)OC1C(O)c1ccc(Cl)cc1 (single isomer, unassigned; diastereomer a) [Example 43]
(4) O=C1N=C(N2CCC3(CC2)OCc2ccccc23)OC1CC1CCCC1 (single isomer, unassigned; enantiomer a) [Example 13]
(5) O=C1N=C(N2CCC3(CC2)OCc2ccccc23)OC12CNCc1ccccc1C2 (stereo not drawn) [Example 138]
Number of molecules to sort: 5. Sort criterion: Ki, ascending. Response format: the labels, sorted as the prompt asks.
4, 5, 3, 2, 1
(4: 0.794 nM, 5: 6.31 nM, 3: 15.8 nM, 2: 50.1 nM, 1: 126 nM)

(I) O=C1N=C(N2CCC3(CC2)OCc2ccccc23)OC12C[C@@H]1OS(=O)O[C@@H]1C2 (stereo partly drawn) [Example 147]
(II) CC1(CC2CCCOC2)OC(N2CCC3(CC2)OCc2ccccc23)=NC1=O (single isomer, unassigned; diastereomer a) [Example 102]
(III) CC1=C(C)CC2(C1)OC(N1CCC3(CC1)OCc1ccccc13)=NC2=O [Example 115]
Ascending sort, Ki. Rank them, then answer with their labels in that order.
III, II, I
(III: 10 nM, II: 20 nM, I: 158 nM)

(1) CC(=O)O[C@H]1CC2(C[C@H]1OC(C)=O)OC(N1CCC3(CC1)OCc1ccccc13)=NC2=O (single isomer, unassigned; diastereomer a) [Example 120]
(2) CCOC(=O)C1=CCC2(C1)OC(N1CCC3(CC1)OCc1ccccc13)=NC2=O (stereo not drawn) [Example 116]
Would you mind telling me which has the lower recorded Ki between 1 and 2 ? In your reply, give the label of the chosen option.
2
